Tested on: BALB/c mice
Assay: Safe use evaluation in vivo (MTD, symptoms, blood biochemistry, histopathology)
Set-up: key: + (mild); ++ (moderate); +++ (severe)
Settings: female mice, at MTD i.p., animals 1 and 2
reportedEndpoint: tremor

1) Cl.Cl.Cl.OCCN1CCN(CC(O)CNc2ccccc2)CC1 (stereo not shown) [Compound 10] = +
2) Cl.Cl.Cl.OCCN1CCN(CCCNc2ccccc2)CC1 [Compound 5] = +
3) COc1ccc(NCCCN2CCN(CCO)CC2)cc1.Cl.Cl.Cl [Compound 7] = ++
4) OCCN1CCN(CC(O)CN2CCN(CCO)CC2)CC1 [Compound 8] = +

====

Assay: WST-1 cytotoxicity test, SAOS-2
Type: cell-based
Conditions: human, SAOS-2 cells; SAOS-2, doxorubicin 1 µM cytotoxicity control, WST-1, mean ± SD; read-out: relative viability (%) compared to untreated control
reportedEndpoint: viability at 48 h, 1 µM (%)
The response must be a number in % with no trailing unit.

In: Report viability at 48 h, 1 µM for COc1cccc2c1C(=O)c1c(O)c3c(c(O)c1C2=O)C[C@@](O)(C(=O)CO)C[C@@H]3O[C@H]1C[C@H](N)[C@H](O)[C@H](C)O1 [DOX, doxorubicin, reference compound]
Out: 22

====

Assay: WST-1 cytotoxicity test, MOLT-4
Format: cell-based
Settings: human, MOLT-4 cells; MOLT-4, 100 µM, 48 h, WST-1, mean ± SD of three experiments; read-out: relative viability (%) compared to untreated control
reportedEndpoint: viability at 48 h, 100 µM (%)
The response must be a number in % with no trailing unit.

In: Report viability at 48 h, 100 µM for Cc1cc(OCC(O)CN2CCN(CCO)CC2)ccc1Cl.Cl.Cl (centres unmarked)
Out: 92

In: Report viability at 48 h, 100 µM for Cl.Cl.Cl.OCCN1CCN(CC(O)CNc2ccccc2)CC1 (centres unmarked)
Out: 100

In: Report viability at 48 h, 100 µM for `Cl.Cl.Cl.OCCN1CCN(CCCNc2cccc3ccccc23)CC1`
Out: 112

In: Report viability at 48 h, 100 µM for `COc1ccc(NCCCN2CCN(CCO)CC2)cc1.Cl.Cl.Cl`
Out: 99

In: Report viability at 48 h, 100 µM for `Cl.Cl.Cl.OCCN1CCN(CCCNc2ccccc2)CC1`
Out: 104

In: Report viability at 48 h, 100 µM for `COc1ccc2nc3c(c(NCCN4CCN(CCO)CC4)c2c1)CCCC3.Cl.Cl.Cl`
Out: 2

In: Report viability at 48 h, 100 µM for `OCCN1CCN(CC(O)CN2CCN(CCO)CC2)CC1`
Out: 81

In: Report viability at 48 h, 100 µM for `Cl.Cl.OC(CNc1ccccc1)CNc1ccccc1`
Out: 71

====

System: BALB/c mice
Test: Safe use evaluation in vivo (MTD, symptoms, blood biochemistry, histopathology)
Set-up: key: + (mild); ++ (moderate); +++ (severe)
Settings: male mice, at MTD i.p., animals 1 and 2
reportedEndpoint: prostration

Observe how each entry below is paired with its result.
1. Cc1cc(OCC(O)CN2CCN(CCO)CC2)ccc1Cl.Cl.Cl (centres unmarked) = +
2. Cl.Cl.Cl.OCCN1CCN(CC(O)CNc2ccccc2)CC1 (centres unmarked) = ++
3. COc1ccc(NCCCN2CCN(CCO)CC2)cc1.Cl.Cl.Cl = ++
4. Cl.Cl.Cl.OCCN1CCN(CCCNc2cccc3ccccc23)CC1 = +

In: Recall the reported prostration of `Cl.Cl.Cl.OCCN1CCN(CCCNc2ccccc2)CC1` when tested on BALB/c mice.
Out: ++

Data credit: paper PMC7038073
